Documented viability, T/C across a set of compounds
System: 292921-168-R tumor spheroid viability
ASSAY EXPLANATION: Anticancer human tumor 292921-168-R patient-derived pancreatic carcinoma cell line growth inhibition
CONDITION CONTEXT: second compound 0.003 µM; first compound 0.1 µM; active compounds read low; spheroids with HUVEC and MSC
# number only, unit % dropped from output

Notebook: COc1ccc([C@@H](O)c2cc(-c3ncnc4cc(N5CCOCC5)ccc34)c(F)cc2Cl)nn1 + CC[C@@]1(O)C(=O)OCc2c1cc1n(c2=O)Cc2cc3c(CN(C)C)c(O)ccc3nc2-1 , viability, T/C read as 94.4

Looking up COc1cc(C)[nH]c(=O)c1CN1CCc2c(Cl)cc(C(OC)C3COC3)c(Cl)c2C1=O (configuration not stated) + COc1cc2c(cc1O)CCNC21CSC2c3c(OC(C)=O)c(C)c4c(c3C(COC1=O)N1C(O)C3Cc5cc(C)c(OC)c(O)c5C(C21)N3C)OCO4 , I found its viability, T/C recorded as 0.14

The compound listed as CC1COCCN1c1cc(-c2ccnn2C)c2ccnc(-c3ccn[nH]3)c2n1 (configuration not stated) + COc1cc2c(cc1O)CCNC21CSC2c3c(OC(C)=O)c(C)c4c(c3C(COC1=O)N1C(O)C3Cc5cc(C)c(OC)c(O)c5C(C21)N3C)OCO4 shows viability, T/C equal to 0.16

Field viability, T/C (entry Cc1cc(C)c(CNC(=O)c2cc(-c3ccc(CN4CCOCC4)cc3)cc3c2cnn3C2CCCC2)c(=O)[nH]1 + COc1cc2c(cc1O)CCNC21CSC2c3c(OC(C)=O)c(C)c4c(c3C(COC1=O)N1C(O)C3Cc5cc(C)c(OC)c(O)c5C(C21)N3C)OCO4 ) reads 0.18

Measured viability, T/C, Cc1cc(C)c(CNC(=O)c2cc(-c3ccc(CN4CCOCC4)cc3)cc3c2cnn3C2CCCC2)c(=O)[nH]1 + CC[C@@]1(O)C(=O)OCc2c1cc1n(c2=O)Cc2cc3c(CN(C)C)c(O)ccc3nc2-1 : 78.4

get_value(item= CC(C)n1c(=O)n(C)c2cnc3cc(F)c(-c4ccc(OCCCN5CCCCC5)nc4)cc3c21 + CC[C@@]1(O)C(=O)OCc2c1cc1n(c2=O)Cc2cc3c(CN(C)C)c(O)ccc3nc2-1 , readout=viability, T/C) returns 42.4

viability, T/C in this record for CC(C)n1c(=O)n(C)c2cnc3cc(F)c(-c4ccc(OCCCN5CCCCC5)nc4)cc3c21 + COc1cc2c(cc1O)CCNC21CSC2c3c(OC(C)=O)c(C)c4c(c3C(COC1=O)N1C(O)C3Cc5cc(C)c(OC)c(O)c5C(C21)N3C)OCO4 : 0.18

====

Overview of recorded viability, T/C for various compounds
Tested on: 292921-168-R tumor spheroid viability
ASSAY EXPLANATION: Anticancer human tumor 292921-168-R cell line growth inhibition;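 further: spheroids exposed to compounds for 7 days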
CONDITION CONTEXT: second compound 0.0949 µM; first compound 0.316 µM; active compounds read low; spheroids with HUVEC and MSC

Some compounds with known viability, T/C results, for comparison:
Cc1cc(C)c(CNC(=O)c2cc(-c3ccc(CN4CCOCC4)cc3)cc3c2cnn3C2CCCC2)c(=O)[nH]1 + CC[C@@]1(O)C(=O)OCc2c1cc1n(c2=O)Cc2cc3c(CN(C)C)c(O)ccc3nc2-1	14.2%
[2H]c1nc(C)nc([2H])c1-c1cc(NC[C@@H](C)c2cccc3c(C(=O)NC)ccnc23)ncn1 + CC[C@@]1(O)C(=O)OCc2c1cc1n(c2=O)Cc2cc3c(CN(C)C)c(O)ccc3nc2-1	12.2%
COc1ccc([C@@H](O)c2cc(-c3ncnc4cc(N5CCOCC5)ccc34)c(F)cc2Cl)nn1 + CC[C@@]1(O)C(=O)OCc2c1cc1n(c2=O)Cc2cc3c(CN(C)C)c(O)ccc3nc2-1	12.5%

Input CC1COCCN1c1cc(-c2ccnn2C)c2ccnc(-c3ccn[nH]3)c2n1 (stereo unspecified) + CC[C@@]1(O)C(=O)OCc2c1cc1n(c2=O)Cc2cc3c(CN(C)C)c(O)ccc3nc2-1 . Output viability, T/C: 5.08%

Just so you know, measured viability, T/C for CC(C)n1c(=O)n(C)c2cnc3cc(F)c(-c4ccc(OCCCN5CCCCC5)nc4)cc3c21 + CC[C@@]1(O)C(=O)OCc2c1cc1n(c2=O)Cc2cc3c(CN(C)C)c(O)ccc3nc2-1 came out at 13.7%

Reported viability, T/C of COc1cc(C)[nH]c(=O)c1CN1CCc2c(Cl)cc(C(OC)C3COC3)c(Cl)c2C1=O (stereo unspecified) + CC[C@@]1(O)C(=O)OCc2c1cc1n(c2=O)Cc2cc3c(CN(C)C)c(O)ccc3nc2-1 : 12.9%

Sourced from PubChem BioAssay AID1845196
